biological target: CDK7/cyclinH/MAT1 trimeric complex (Homo sapiens (Human), UniProt P50613); assay: In vitro CDK7 assay, potency of irreversible covalent inhibitors (kinact/KI); settings: CDK7 (20 nM enz.) (KI, μM), 20 nM enz.
Sequence (P50613 whole entry): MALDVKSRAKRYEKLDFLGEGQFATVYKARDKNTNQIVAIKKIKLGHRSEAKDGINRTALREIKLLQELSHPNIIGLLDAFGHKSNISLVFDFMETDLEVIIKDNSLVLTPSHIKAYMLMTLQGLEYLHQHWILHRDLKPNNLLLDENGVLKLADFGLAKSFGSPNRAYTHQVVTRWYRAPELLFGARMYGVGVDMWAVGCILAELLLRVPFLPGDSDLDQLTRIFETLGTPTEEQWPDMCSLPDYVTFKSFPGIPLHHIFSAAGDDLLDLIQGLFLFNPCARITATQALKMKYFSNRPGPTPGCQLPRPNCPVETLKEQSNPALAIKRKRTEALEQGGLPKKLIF
Sequence (P51946 whole entry partner): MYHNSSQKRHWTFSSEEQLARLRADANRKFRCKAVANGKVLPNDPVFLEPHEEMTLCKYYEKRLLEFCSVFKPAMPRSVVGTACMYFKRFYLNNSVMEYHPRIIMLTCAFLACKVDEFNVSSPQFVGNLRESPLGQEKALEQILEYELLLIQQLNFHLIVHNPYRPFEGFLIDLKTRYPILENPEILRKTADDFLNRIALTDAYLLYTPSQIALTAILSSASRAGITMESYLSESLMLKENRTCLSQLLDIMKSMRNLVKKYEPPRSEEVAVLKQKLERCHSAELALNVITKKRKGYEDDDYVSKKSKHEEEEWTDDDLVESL
Sequence (P51948 whole entry partner): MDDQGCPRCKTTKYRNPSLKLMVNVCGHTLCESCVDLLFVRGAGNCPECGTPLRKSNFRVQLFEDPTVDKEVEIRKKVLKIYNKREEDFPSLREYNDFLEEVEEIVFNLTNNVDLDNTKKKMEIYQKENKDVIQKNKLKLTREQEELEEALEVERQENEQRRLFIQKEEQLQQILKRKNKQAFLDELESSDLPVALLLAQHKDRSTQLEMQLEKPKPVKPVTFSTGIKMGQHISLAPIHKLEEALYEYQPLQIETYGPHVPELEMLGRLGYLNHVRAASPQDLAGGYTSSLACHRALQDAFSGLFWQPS
Ki values, listed per item
Return type: number; implicit unit µM.

Known results for molecules:
MOLECULE: C=CC(=O)N1CC(N2CC[C@@H](c3cc4c(c(C)n3)OCc3c(ncnc3N3CCS(=O)(=O)CC3)N4)C2)C1
SYSTEM_UNDER_TEST: CDK7/cyclinH/MAT1 trimeric complex (Homo sapiens (Human), UniProt P50613)
U: µM
Ki: 0.175
--
MOLECULE: CC#CC(=O)N1CC(N2CCC(c3cc4c(c(C)n3)O[C@@H](C)c3c(ncnc3N3CCS(=O)(=O)CC3)N4)CC2)C1 (single isomer, unassigned)
SYSTEM_UNDER_TEST: CDK7/cyclinH/MAT1 trimeric complex (Homo sapiens (Human), UniProt P50613)
U: µM
Ki: 2.57

The molecule listed as `C=CC(=O)N1CCC(N2CC[C@@H](c3cc(C)c4c(c3)Nc3ncnc(N5CCOCC5)c3CO4)C2)CC1` shows Ki equal to 1.22

For record `C=CC(=O)N1CCC(N2CC(c3cc4c(c(C(F)(F)F)c3)OCc3c(ncnc3N3CCOCC3)N4)C2)CC1` the listed Ki is 0.219

Reported Ki ( `C=CC(=O)N1CC(N2CCC(c3cc(C)c4c(c3)Nc3ncnc(-c5ccnn5C)c3CO4)CC2)C1` ) = 0.32

Documented Ki of C=CC(=O)N1CCC(N2CC(c3cc(C)c4c(c3)Nc3ncnc(N5CCOCC5)c3CO4)C2)C(F)C1 (stereo not shown) [compound 28] : 0.686

Measured Ki of `C=CC(=O)N1CC(N2CCC(c3cc4c(c(C)n3)OCc3c(ncnc3N3CCS(=O)(=O)CC3)N4)CC2)C1` : 0.0451

---

Record type: pIC50 measurement. Applies to: RNA polymerase II Serine 5 phosphorylation (CDK7) in A549 cells
Expect pIC50 as a plain number equal to -log10 of the molar concentration.

Consider the reported pIC50 for these compounds:
COMPOUND: CC#CC(=O)N1CC(N2CCC(c3cc(C)c4c(c3)Nc3ncnc(N5CCS(=O)(=O)CC5)c3CO4)CC2)C1 [compound 151]
pIC50: 6.94
//
COMPOUND: CC#CC(=O)N1CCC(N2CCC(c3cc(C)c4c(c3)Nc3ncnc(N5CCS(=O)(=O)CC5)c3CO4)CC2)C1 (stereo not shown) [compound 152]
pIC50: 7.19
//
COMPOUND: C=CC(=O)N1CC(N2CCC(c3cc4c(c(C)n3)O[C@H](C)c3c(ncnc3N3CCS(=O)(=O)CC3)N4)CC2)C1 (single isomer, unassigned) [compound 85]
pIC50: 7.17
//
COMPOUND: CC#CC(=O)N1CCC(N2CCN(c3cc(C)c4c(c3)Nc3ncnc(N5CCS(=O)(=O)CC5)c3CO4)CC2)CC1 [compound 136]
pIC50: 6.59
//
COMPOUND: C=CC(=O)N1CC(N2CCC(c3cc(C)c4c(c3)Nc3ncnc(N5CC(CO)C5)c3CO4)CC2)C1 [compound 107]
pIC50: 5.41

With those in mind, consider the next compound.
Query C=CC(=O)N1CC(N2CCN(c3ccc4c(c3)Nc3ncnc(N5CCOCC5)c3CO4)CC2)C1 [compound 6] yields pIC50 of 5.42

---

system: RNA polymerase II Serine 5 phosphorylation in A549 cells overexpressing CDK7 mutant (C312S); experiment: Imaging-based cellular RNA PolII Ser5 phosphorylation assay in A549 cells overexpressing CDK7-mutant (C312S); format: cell-based, human; details: Homo sapiens, A549, A549 cells overexpressing CDK7 mutant (C312S); read-out: CDK7_ A549 mutant hCDK7(pIC50) (converted)
Examples of molecules with documented IC50 follow.

MOLECULE: C=CC(=O)N1CC[C@H](N2CCC(c3cc(C)c4c(c3)Nc3ncnc(N5CCOCC5)c3CO4)CC2)C1
IC50: > 10 µM

Summary for this molecule, CC#CC(=O)N1CC[C@@H](N2CC(c3cc(C)c4c(c3)Nc3ncnc(N5CCS(=O)(=O)CC5)c3[C@H](C)O4)C2)C1 (single isomer, unassigned) : IC50 is > 10 µM

Given item `C=CC(=O)N1CC(N2CCC(c3cc(F)c4c(c3)Nc3ncnc(-c5cnn(C)c5)c3CO4)CC2)C1` , the value recorded as its IC50 is > 10 µM

---

Quick reference for kinact among some compounds
molecular target: CDK7/cyclinH/MAT1 trimeric complex (Homo sapiens (Human), UniProt P50613); experiment: In vitro CDK7 assay, potency of irreversible covalent inhibitors (kinact/KI); details: read-out: CDK7 (20 nM enz.) (kinact, s^−1), 20 nM enz.
Reply with just the number (in s⁻¹).

COMPOUND: C=CC(=O)N1CC(N2CC(c3cc4c(c(C)n3)OCc3c(ncnc3N3CCS(=O)(=O)CC3)N4)C2)C1 [compound 64]
ENDPOINT_RESULT: 4.81e-05

Please turn your attention to the following entry.
Recorded result, C=CC(=O)N1CCC(N2CC(c3cc(F)c4c(c3)Nc3ncnc(N5CCOCC5)c3[C@H](C)O4)C2)CC1 [compound 26] , kinact: 4.84e-05

---

# maps each entry to its CDK7_ A549 mutant hCDK7(pIC50)
System: RNA polymerase II Serine 5 phosphorylation in A549 cells overexpressing CDK7 mutant (C312S)
Assay: Imaging-based cellular RNA PolII Ser5 phosphorylation assay in A549 cells overexpressing CDK7-mutant (C312S)
Type: cell-based, human
Conditions: A549 cells overexpressing CDK7 mutant (C312S)
Protocol: Data were calculated and analyzed in Phaedra. From this an IC50 value can be obtained. In parallel this assay was performed in A549 cells overexpressing CDK7-mutant (C312S) to evaluate the effect of the covalent bond on potency and to screen for potential off-target effects. Mutation of Cysteine to Serine (C312S), a less nucleophilic amino acid, prevents CDK7 inhibitors from covalently binding to CDK7 and from inhibiting CDK7 activity in an irreversible manner. […]

Please review the following examples before continuing.
COMPOUND: C=CC(=O)N1CC[C@@H](N2CC(c3cc(C)c4c(c3)Nc3ncnc(N5CCS(=O)(=O)CC5)c3[C@@H](C)O4)C2)C1 (single isomer, unassigned) [compound 119]
CDK7_ A549 mutant hCDK7(pIC50): 4.95
--
COMPOUND: CC#CC(=O)N1CC[C@H](N2CC(c3cc(C)c4c(c3)Nc3ncnc(N5CCS(=O)(=O)CC5)c3[C@@H](C)O4)C2)C1 [compound 142]
CDK7_ A549 mutant hCDK7(pIC50): <5
--
COMPOUND: C=CC(=O)N1CC[C@@H](N2CC(c3cc(C)c4c(c3)Nc3ncnc(N5CCS(=O)(=O)CC5)c3[C@H](C)O4)C2)C1 (single isomer, unassigned)
CDK7_ A549 mutant hCDK7(pIC50): <5
--
COMPOUND: CC#CC(=O)N1CCOC([C@H]2C[C@@H](c3cc(C)c4c(c3)Nc3ncnc(N5CCS(=O)(=O)CC5)c3[C@@H](C)O4)C2)C1 (single isomer, unassigned)
CDK7_ A549 mutant hCDK7(pIC50): <5
--
COMPOUND: C=CC(=O)N1CC[C@H](N2CC(c3cc(C)c4c(c3)Nc3ncnc(N5CCS(=O)(=O)CC5)c3[C@H](C)O4)C2)C1 (single isomer, unassigned)
CDK7_ A549 mutant hCDK7(pIC50): <5

Reported CDK7_ A549 mutant hCDK7(pIC50) for C=CC(=O)N1CC[C@H](N2CC(c3cc(C)c4c(c3)Nc3ncnc(N5CCS(=O)(=O)CC5)c3[C@@H](C)O4)C2)C1 (single isomer, unassigned) [compound 117] was <5

Measured CDK7_ A549 mutant hCDK7(pIC50), C=CC(=O)N1CC(N2CCC(c3cc4c(cn3)O[C@H](C)c3c(ncnc3N3CCOCC3)N4)CC2)C1 (single isomer, unassigned) [compound 83] : <5.4

---

biological target: CDK7/cyclinH/MAT1 trimeric complex (Homo sapiens (Human)); test: In vitro CDK7 assay, potency of irreversible covalent inhibitors (kinact/KI); settings: read-out: CDK7 (kinact/KI, M^−1*s^−1), Table B
Quick list: kinact/KI per entry.
# unit: M⁻¹ s⁻¹ | format: bare number

A selection of reference data follows.
COMPOUND: C=CC(=O)N1CC(N2CC[C@@H](c3ccc4c(c3)Nc3ncnc(N5CCOCC5)c3CO4)C2)C1
ENDPOINT_RESULT: 409

COMPOUND: C=CC(=O)N1CC(N2CC[C@H](c3ccc4c(c3)Nc3ncnc(N5CCOCC5)c3CO4)[C@H](C)C2)C1 (single isomer, unassigned)
ENDPOINT_RESULT: 832

COMPOUND: C=CC(=O)N1CC(N2CCC(c3ccc4c(c3)Nc3ncnc(N5CCOCC5)c3CO4)CC2C)C1 (stereo not shown)
ENDPOINT_RESULT: 721

Turning now to a further compound:
Record `C=CC(=O)N1CC[C@H](N2CCC(c3ccc4c(c3)Nc3ncnc(N5CCOCC5)c3CO4)CC2)C1` , field kinact/KI: 408
